All values here come from patent US20040010001A1.

Answer each item with its documented IC50.
Test system: Human prostate PC3 tumor cells
Experiment: aFGF/bFGF-induced resistance and reversal by suramin, sulforhodamine B assay
Assay type: cell-based
Conditions: read-out: IC50, Control (without FGF treatment), Suramin, 15 μM; drug 96 hours with 15 μM suramin
Answer format reminder: number followed by unit.

What the record says about C/C=C1\NC(=O)[C@H]2CSSCC/C=C/[C@H](CC(=O)N[C@H](C(C)C)C(=O)N2)OC(=O)[C@H](C(C)C)NC1=O [Depsipeptide] : IC50 is 1.03 nM

IC50 reading for Nc1nc2nc[nH]c2c(=S)[nH]1 [6-Thioguanine] : 320 nM

Reported IC50 ( CC[C@]1(O)C[C@@H]2CN(CCc3c([nH]c4ccccc34)[C@@](C(=O)OC)(c3cc4c(cc3OC)N(C)[C@H]3[C@@](O)(C(=O)OC)[C@H](OC(C)=O)[C@]5(CC)C=CCN6CC[C@]43[C@@H]65)C2)C1 [Vinblastine] ) = 0.4 nM

---

For each record, write down the corresponding log10(IC50).
Tested on: Human prostate PC3 tumor cells
Assay: aFGF/bFGF-induced resistance and reversal by suramin, sulforhodamine B assay
Type: cell-based
Settings: read-out: IC50, Control (without FGF treatment), Suramin, 15 μM; drug 96 hours with 15 μM suramin
Field: value | Transform: log10 | Quantity: IC50 | Unit: nM

# log10(IC50) (molecule: COc1cc([C@@H]2c3cc4c(cc3[C@@H](O[C@@H]3O[C@@H]5CO[C@@H](C)O[C@H]5[C@H](O)[C@H]3O)[C@H]3COC(=O)[C@H]23)OCO4)cc(OC)c1O [Etoposide] ) is 3.24

Query Nc1ccn([C@@H]2O[C@H](CO)[C@@H](O)C2(F)F)c(=O)n1 [Gemcitabine] yields log10(IC50) of 0.84

For record Nc1nc(Cl)nc2c1ncn2[C@H]1C[C@H](O)[C@@H](CO)O1 [Cladribine] the listed log10(IC50) is 2.56

Query CC[C@@]1(O)C(=O)OCc2c1cc1n(c2=O)Cc2cc3ccccc3nc2-1 [Camptothecin] yields log10(IC50) of 0.68

For record NC(=O)c1[nH]nc([C@@H]2O[C@H](CO)[C@@H](O)[C@H]2O)c1O [Pyrazofurin] the listed log10(IC50) is 3.58

Note to self: log10(IC50) recorded for COc1cc(NS(C)(=O)=O)ccc1Nc1c2ccccc2nc2ccccc12 [Amsacrine] was 2.83

For O=C(CCBr)N1CCN(C(=O)CCBr)CC1 [Pipobroman] the molecule record lists log10(IC50) as 4.97

The recorded log10(IC50) for entry N[C@@H](CN(O)N=O)C(=O)O [Alanosine] equals 3.33

Measured log10(IC50), CC[C@]1(O)C[C@@H]2CN(CCc3c([nH]c4ccccc34)[C@@](C(=O)OC)(c3cc4c(cc3OC)N(C)[C@H]3[C@@](O)(C(N)=O)[C@H](O)[C@]5(CC)C=CCN6CC[C@]43[C@@H]65)C2)C1 [Vindesine] : -0.46

Record CS(=O)(=O)OCCCCOS(C)(=O)=O [Busulfan] . Reported log10(IC50): 4.95

// sample N[C@@H](Cc1ccc(N(CCCl)CCCl)cc1)C(=O)O [Melphalan] , its log10(IC50) was 3.60

Record summary for CC(=O)[C@]1(O)Cc2c(O)c3c(c(O)c2[C@@H](O[C@H]2C[C@H](N)[C@H](O)[C@H](C)O2)C1)C(=O)c1ccccc1C3=O [Idarubicin] : reported log10(IC50) = 0.70

Per the records, this molecule ( NC(=O)c1csc([C@@H]2O[C@H](CO)[C@@H](O)[C@H]2O)n1 [Tiazofurin] ) has log10(IC50) equal to 3.90

The molecule listed as Nc1ncn([C@H]2C[C@H](O)[C@@H](CO)O2)c(=O)n1 [5-Aza 2′-deoxycytidine] has a reported log10(IC50) of 3.79

Sample O=C1c2c(O)ccc(O)c2C(=O)c2c(NCCNCCO)ccc(NCCNCCO)c21 [Mitoxantrone] ; log10(IC50) observed: 2.20

---

Test system: Human prostate PC3 tumor cells
Test: aFGF/bFGF-induced resistance and reversal by suramin, sulforhodamine B assay
Format: cell-based
Conditions: read-out: IC50, Control (without FGF treatment), Suramin, 15 μM; drug 96 hours with 15 μM suramin
Protocol: The experimental conditions are described briefly below. […] Cell number was measured using the sulforhodamine B assay which measures the total protein concentration. […] The FGF-induced resistance was dependent on the FGF concentrations, with a higher resistance at higher FGF concentrations.
Consider the cut-off 0.04 µM. If the recorded IC50 is strictly smaller, the label is yes (1); if not, the label is no (0).

Just wondering, is IC50 of CC[C@]1(O)C[C@H]2CN(CCc3c([nH]c4ccccc34)[C@@](C(=O)OC)(c3cc4c(cc3OC)N(C=O)[C@H]3[C@@](O)(C(=O)OC)[C@H](OC(C)=O)[C@]5(CC)C=CCN6CC[C@]43[C@@H]65)C2)C1 [Vincristine] below 0.04 µM?
yes (1)

Threshold test, IC50 < 0.04 µM: COc1cc(NCc2ccc3nc(N)nc(N)c3c2C)cc(OC)c1OC [Trimetrexate]
yes (1)

# check: IC50 < 0.04 µM for O=C1NC(=S)NC(=O)C1C(=O)Nc1ccccc1 [Merbarone]
no (0)

Would you kindly verify if IC50 of N.N.O=C([O-])C1(C(=O)[O-])CCC1.[Pt+2] [Carboplatin] is strictly less than 0.04 µM?
no (0)

State whether 0.04 µM exceeds IC50 recorded for COc1cccc2c1C(=O)c1c(O)c3c(c(O)c1C2=O)C[C@@](O)(C(=O)CO)C[C@@H]3O[C@H]1C[C@H](N)[C@H](O)[C@H](C)O1 [Doxorubicin] .
yes (1)

# check: IC50 < 0.04 µM for Nc1ncnc2c1ncn2[C@@H]1O[C@H](CO)[C@@H](O)[C@@H]1O [Adenosine arabinoside (Ara-A), Adenosine arabinoside]
no (0)

Please indicate whether the reported IC50 of CC(O)CCC(=O)c1ccoc1 (stereo not shown) [4-Ipomeanol] is strictly below 0.04 µM.
no (0)

---

Provide the recorded IC50 for the entries that follow.
System: Human prostate PC3 tumor cells
Test: aFGF/bFGF-induced resistance and reversal by suramin, sulforhodamine B assay
Type: cell-based
Settings: Homo sapiens, 96 h, read-out: IC50, Control (drug treatment only, without FGF treatment), No suramin
Express your answer in µM, writing the number without its unit.

// sample O=C1NC2(CCCCC2)C(=O)N1CCN(CCCl)CCCl [Spiromustine] , its IC50 was 25.3

Recorded IC50 (molecule S=P(N1CC1)(N1CC1)N1CC1 [Thiotepa] ): 3.85

Field IC50 (entry Oc1ncc(N(CCCl)CCCl)c(O)n1 [Uracil Mustard] ) reads 30

molecule OC[C@H]1O[C@@H](n2cnc3c2NC=NC[C@H]3O)C[C@@H]1O [Pentostatin] , IC50 observed: 336

For reference, reported IC50 for O=C(O)CC(NC(=O)CP(=O)(O)O)C(=O)O [PALA, N-Phosphoracetyl-L-Asparate] stands at 241

Reported IC50 for O=P1(N(CCCl)CCCl)NCCCO1 (stereo not drawn) [Cyclophosphamide] was 0.51

---

Tested on: Human prostate PC3 tumor cells
Assay: aFGF/bFGF-induced resistance and reversal by suramin, sulforhodamine B assay
Assay type: cell-based
Details: Homo sapiens, 96 h, read-out: IC50, aFGF 1 ng/ml + bFGF 3 ng/ml, No suramin
Assign IC50 to each entry below.
Expressed in µM, but write only the number.

// IC50 lookup, compound = Oc1ncc(N(CCCl)CCCl)c(O)n1 [Uracil Mustard] , result: 67.1

Per the records, this compound ( S=P(N1CC1)(N1CC1)N1CC1 [Thiotepa] ) has IC50 equal to 33.2

Reported IC50 for O=C(O)CC(NC(=O)CP(=O)(O)O)C(=O)O [PALA, N-Phosphoracetyl-L-Asparate] was 292

IC50 in this record for O=P1(N(CCCl)CCCl)NCCCO1 (centres unmarked) [Cyclophosphamide] : 1.53

IC50 recorded for this compound, O=C1NC2(CCCCC2)C(=O)N1CCN(CCCl)CCCl [Spiromustine] , is 87.6

---

Tested on: rat lung metastases, histocultures
Assay: Drug effect in histocultures of rat lung metastases (inhibition of 3H-thymidine incorporation)
Assay type: cell-based
Settings: Histocultures, Lung, 96 hours, read-out: Concentration producing 50% inhibition
Parameter Measured: pIC50
Scale explanation: pIC50 corresponds to minus log10 of a concentration expressed in moles per litre.

The reported value for O=c1[nH]cc(F)c(=O)[nH]1 in terms of pIC50 is 3.91

---

Test system: Human prostate PC3 tumor cells
Experiment: aFGF/bFGF-induced resistance and reversal by suramin, sulforhodamine B assay
Type: cell-based
Conditions: read-out: IC50, Control (without FGF treatment), Suramin, 15 μM; drug 96 hours with 15 μM suramin
Structures can show the parent of a compound that is named as a salt.
Rule: measured IC50 below 2000 nM gets Condition met; anything equal to or greater than 2000 nM gets Condition not met.

Identify whether the molecule COc1cc([C@@H]2c3cc4c(cc3[C@@H](O[C@@H]3O[C@@H]5CO[C@@H](c6cccs6)O[C@H]5[C@H](O)[C@H]3O)[C@H]3COC(=O)[C@H]23)OCO4)cc(OC)c1O [Teniposide] records IC50 below 2000 nM.
Condition met

Quick check: IC50 of CC(=O)O[C@H]1C(=O)[C@@]2(C)[C@H]([C@H](OC(=O)c3ccccc3)[C@]3(O)C[C@H](OC(=O)[C@H](O)[C@@H](NC(=O)c4ccccc4)c4ccccc4)C(C)=C1C3(C)C)[C@]1(OC(C)=O)CO[C@@H]1C[C@@H]2O under 2000 nM?
Condition met

Lab note: IC50 threshold 2000 nM. Does this molecule come in strictly under it? CCC1=C[C@@H]2CN(C1)Cc1c([nH]c3ccccc13)[C@@](C(=O)OC)(c1cc3c(cc1OC)N(C)[C@H]1[C@@](O)(C(=O)OC)[C@H](OC(C)=O)[C@]4(CC)C=CCN5CC[C@]31[C@@H]54)C2
Condition met

Strictly below 2000 nM in IC50? N.N.[Cl][Pt][Cl] [Cisplatin]
Condition not met

Strictly below 2000 nM in IC50? CO[C@@]12[C@H](COC(N)=O)C3=C(C(=O)C(C)=C(N)C3=O)N1C[C@@H]1N[C@@H]12
Condition met

Determine whether this molecule shows IC50 lower than 2000 nM (ties excluded): CN(Cc1cnc2nc(N)nc(N)c2n1)c1ccc(C(=O)N[C@@H](CCC(=O)O)C(=O)O)cc1 [Methotrexate]
Condition not met

Dear reviewer, please state whether Nc1ncn([C@@H]2O[C@H](CO)[C@@H](O)[C@H]2O)c(=O)n1 has IC50 strictly beneath 2000 nM.
Condition not met

I wonder whether CC(=O)O[C@@]12CO[C@@H]1C[C@H](O)[C@@]1(C)C(=O)[C@H](O)C3=C(C)[C@@H](OC(=O)[C@H](O)[C@@H](NC(=O)OC(C)(C)C)c4ccccc4)C[C@@](O)([C@@H](OC(=O)c4ccccc4)[C@H]21)C3(C)C has IC50 below 2000 nM. Can you tell?
Condition met

IC50 under 2000 nM? Item: NCCCNc1ccc2c3c(nn2CCNCCO)-c2c(O)ccc(O)c2C(=O)c13 [Piroxantrone Hydrochloride]
Condition met

Hello, I'm reviewing records and need to know if IC50 of O=c1[nH]c(=O)n([C@H]2C[C@H](O)[C@@H](CO)O2)cc1F is below 2000 nM. Could you check?
Condition met

Hello, I'm reviewing records and need to know if IC50 of COc1cccc2c1C(=O)c1c(O)c3c(c(O)c1C2=O)C[C@@](O)(C(C)=O)C[C@@H]3O[C@H]1C[C@H](N)[C@H](O)[C@H](C)O1 is below 2000 nM. Could you check?
Condition met

is_below(IC50, 2000 nM) for N[C@H](C(=O)O)[C@@H]1CC(Cl)=NO1 ?
Condition met

# strict comparison: is reported IC50 < 2000 nM? input = CC[C@@]1(O)C(=O)OCc2c1cc1n(c2=O)Cc2cc3c(CN(C)C)c(O)ccc3nc2-1
Condition met
